- system_tested: Acetylcholinesterase (Electrophorus electricus, UniProt O42275)
- Sequence (O42275 whole entry): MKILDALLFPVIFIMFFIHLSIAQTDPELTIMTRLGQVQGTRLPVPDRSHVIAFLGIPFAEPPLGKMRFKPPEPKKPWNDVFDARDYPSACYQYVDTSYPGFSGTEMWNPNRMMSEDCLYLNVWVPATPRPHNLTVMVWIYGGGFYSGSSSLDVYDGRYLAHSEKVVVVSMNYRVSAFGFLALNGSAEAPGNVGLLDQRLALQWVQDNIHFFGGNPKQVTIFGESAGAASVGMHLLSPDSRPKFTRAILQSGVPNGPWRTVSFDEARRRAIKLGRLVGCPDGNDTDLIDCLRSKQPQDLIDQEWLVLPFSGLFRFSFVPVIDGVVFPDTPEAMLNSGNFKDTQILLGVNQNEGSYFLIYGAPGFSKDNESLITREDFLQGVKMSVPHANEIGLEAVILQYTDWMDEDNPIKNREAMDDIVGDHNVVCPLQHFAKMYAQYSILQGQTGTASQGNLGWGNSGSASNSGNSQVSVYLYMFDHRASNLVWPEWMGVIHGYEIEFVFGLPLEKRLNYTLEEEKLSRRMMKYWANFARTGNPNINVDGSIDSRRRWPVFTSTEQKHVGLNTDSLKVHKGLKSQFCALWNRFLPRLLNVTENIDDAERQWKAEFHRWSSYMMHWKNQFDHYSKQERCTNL
- procedure_summary: Inhibition of electric eel AChE using acetylthiocholine iodide as substrate incubated for 15 mins by Ellman's method
recorded_endpoint: IC50 (µM)
// units = µM; emit number, no label

Query: Fill in the blank: the reported IC50 of C#CCN1C(=O)/C(=N/NC(=O)c2ccc3c(c2)OCO3)c2ccccc21 is ____.
Result: 0.052

###

- system_tested: Amine oxidase [flavin-containing] B (Homo sapiens, UniProt P27338)
- procedure_summary: Inhibition of recombinant human MAO-B using kynuramine as substrate incubated for 20 min by fluorescent spectrophotometric assay
recorded_endpoint: IC50 (nM)
// units = nM; emit number, no label

Query: Fill in the blank: the reported IC50 of O=c1cc(OCCN2CCOCC2)c2ccccc2o1 is ____.
Result: 372

###

- system_tested: Amine oxidase [flavin-containing] A (Homo sapiens)
- procedure_summary: Inhibition of recombinant human MAO-A expressed in insect cells using kynuramine as substrate incubated for 20 mins by Amplex Red reagent based fluorometric method
recorded_endpoint: pIC50
// pIC50 here means minus log10 of the molar concentration (mol/L)

Query: Any idea what pIC50 came out for CCCCOc1ccc(C2=NN(C(N)=S)C(c3ccccc3)C2)cc1 (stereo unspecified) on Amine oxidase [flavin-containing] A (Homo sapiens)?
Result: 5.44

###

- system_tested: Amine oxidase [flavin-containing] A (Homo sapiens, UniProt P21397)
- Sequence (P21397 whole entry): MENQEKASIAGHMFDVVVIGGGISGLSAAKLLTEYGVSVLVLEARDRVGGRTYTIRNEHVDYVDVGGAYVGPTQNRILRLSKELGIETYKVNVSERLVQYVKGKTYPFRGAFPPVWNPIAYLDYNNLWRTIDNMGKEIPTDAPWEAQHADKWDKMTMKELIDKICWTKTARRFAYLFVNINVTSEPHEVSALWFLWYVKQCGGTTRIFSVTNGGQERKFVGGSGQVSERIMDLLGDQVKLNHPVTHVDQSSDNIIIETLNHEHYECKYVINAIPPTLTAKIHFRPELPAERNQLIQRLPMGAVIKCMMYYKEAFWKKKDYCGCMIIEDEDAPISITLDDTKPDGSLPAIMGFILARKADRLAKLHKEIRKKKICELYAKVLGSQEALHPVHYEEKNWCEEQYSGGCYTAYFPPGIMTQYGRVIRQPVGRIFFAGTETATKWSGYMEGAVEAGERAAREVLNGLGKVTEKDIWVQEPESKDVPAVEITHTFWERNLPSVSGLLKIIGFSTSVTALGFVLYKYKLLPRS
- procedure_summary: Inhibition of MAO-A (unknown origin) using kynuramine as substrate by spectrophotometric assay
recorded_endpoint: IC50 (µM)
// units = µM; emit number, no label

Query: Fill in the blank: the reported IC50 of O=C(/C=C/c1cccc(F)c1)c1ccc(N2CCOCC2)cc1 is ____.
Result: 45

###

- procedure_summary: Oral bioavailability in ICR mouse at 10 mg/kg and measured after 24 hrs by HPLC analysis
- Type: ADME, organism-based
- particulars: in vivo
recorded_endpoint: bioavailability
Number plus unit, in that order.

Query: Fill in the blank: the reported bioavailability of C#CCNCc1ccc2c(c1)ncn2-c1cc(NC(=S)NCC)ncn1 is ____.
Result: 45.5%

###

- system_tested: Cholinesterase (Equus caballus, UniProt P81908)
- Sequence (P81908 whole entry): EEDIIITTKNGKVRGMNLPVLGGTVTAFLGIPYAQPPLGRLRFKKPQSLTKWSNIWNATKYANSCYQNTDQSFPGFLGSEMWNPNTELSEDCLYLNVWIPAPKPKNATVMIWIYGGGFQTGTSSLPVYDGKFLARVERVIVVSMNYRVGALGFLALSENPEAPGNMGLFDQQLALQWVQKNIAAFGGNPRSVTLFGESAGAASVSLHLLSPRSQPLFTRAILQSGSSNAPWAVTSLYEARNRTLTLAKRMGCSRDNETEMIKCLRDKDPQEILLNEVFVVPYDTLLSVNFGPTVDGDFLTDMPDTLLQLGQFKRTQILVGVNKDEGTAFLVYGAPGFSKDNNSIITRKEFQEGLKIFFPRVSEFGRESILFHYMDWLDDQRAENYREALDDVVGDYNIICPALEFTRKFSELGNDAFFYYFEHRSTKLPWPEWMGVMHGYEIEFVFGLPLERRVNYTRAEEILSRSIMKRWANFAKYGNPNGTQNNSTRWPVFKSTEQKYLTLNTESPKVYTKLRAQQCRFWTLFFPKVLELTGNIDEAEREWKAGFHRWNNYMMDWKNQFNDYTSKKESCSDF
- procedure_summary: Inhibition of horse serum BuChE using butyrylthiocholine iodide as substrate preincubated for 5 mins followed by substrate addition and measured for 20 mins by DTNB reagent based Ellman's method
recorded_endpoint: IC50 (µM)
// units = µM; emit number, no label

Query: Fill in the blank: the reported IC50 of O=c1oc2c(O)c(O)ccc2cc1-c1ccc(O)c(O)c1 is ____.
Result: 8.37

###

# IC50 per entry
- system_tested: Amine oxidase [flavin-containing] B (Homo sapiens, UniProt P27338)
- Sequence (P27338 whole entry): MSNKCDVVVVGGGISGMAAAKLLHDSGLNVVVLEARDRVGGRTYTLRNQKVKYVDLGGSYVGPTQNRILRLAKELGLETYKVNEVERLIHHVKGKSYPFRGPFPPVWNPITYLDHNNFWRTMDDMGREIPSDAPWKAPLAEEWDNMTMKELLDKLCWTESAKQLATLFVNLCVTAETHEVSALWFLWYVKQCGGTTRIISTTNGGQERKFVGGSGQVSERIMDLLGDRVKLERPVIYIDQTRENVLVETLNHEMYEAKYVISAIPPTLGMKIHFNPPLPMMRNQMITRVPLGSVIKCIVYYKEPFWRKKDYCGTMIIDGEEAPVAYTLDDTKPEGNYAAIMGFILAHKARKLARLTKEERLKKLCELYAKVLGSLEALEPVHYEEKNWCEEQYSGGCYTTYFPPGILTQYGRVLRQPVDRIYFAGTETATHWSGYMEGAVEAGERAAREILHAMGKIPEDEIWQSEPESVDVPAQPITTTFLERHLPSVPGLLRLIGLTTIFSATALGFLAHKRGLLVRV
- procedure_summary: Inhibition of human MAO-B

O=C1CCC2(O)c3c(ccc(O)c31)-c1ccc(O)c3c1C2C1OC1C3=O (configuration not stated) : > 80 µM

Query: Any idea what IC50 came out for COc1cc(O)c2c(=O)oc3cc(O)cc(C)c3c2c1 on Amine oxidase [flavin-containing] B (Homo sapiens, UniProt P27338)?
Result: > 80 µM

###

- system_tested: Amine oxidase [flavin-containing] B (Rattus norvegicus)
- Sequence (P19643 whole entry): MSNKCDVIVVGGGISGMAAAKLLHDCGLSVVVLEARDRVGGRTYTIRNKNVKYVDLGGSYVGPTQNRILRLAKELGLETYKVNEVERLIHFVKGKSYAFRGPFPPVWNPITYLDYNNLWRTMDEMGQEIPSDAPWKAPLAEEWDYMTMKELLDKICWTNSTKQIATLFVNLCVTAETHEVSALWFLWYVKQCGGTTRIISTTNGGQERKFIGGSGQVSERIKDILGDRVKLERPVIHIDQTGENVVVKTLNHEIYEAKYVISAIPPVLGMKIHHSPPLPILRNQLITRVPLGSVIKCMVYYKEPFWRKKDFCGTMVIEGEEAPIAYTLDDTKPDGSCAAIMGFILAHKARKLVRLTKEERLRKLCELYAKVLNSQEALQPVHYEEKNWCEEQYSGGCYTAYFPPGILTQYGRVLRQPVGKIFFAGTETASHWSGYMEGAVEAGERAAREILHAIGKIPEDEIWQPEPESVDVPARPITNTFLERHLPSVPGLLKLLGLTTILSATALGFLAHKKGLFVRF
- procedure_summary: Inhibition of MAO-B expressed in Wistar rat liver preincubated for 30 mins followed by 4-(trifluoromethyl) benzylamine addition and measured after 90 mins by microplate reader analysis
- Format: tissue-based
recorded_endpoint: pIC50
// pIC50 here means minus log10 of the molar concentration (mol/L)

Query: Fill in the blank: the reported pIC50 of O=c1oc2c(O)c(O)ccc2cc1-c1ccc(O)c(O)c1 is ____.
Result: 4.57
